Recorded IC50 values for a group of compounds are listed next.
target: mTORC2 (Homo sapiens, UniProt P42345+P62942); construct: endogenous in cells; host or cells: PC3 cells (human prostate adenocarcinoma); assay: Inhibition assay for mTORC2: phosphorylation of pAkt at Ser473, AlphaLISA in PC3 cells; type: cell-based; settings: read-out: pIC50 mTORC2 (converted)
Sequence (P62942 2-108 limits assumed, other chains not shown): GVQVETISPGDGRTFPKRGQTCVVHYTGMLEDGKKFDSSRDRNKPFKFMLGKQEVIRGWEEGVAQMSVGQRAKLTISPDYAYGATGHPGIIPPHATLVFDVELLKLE

Record excerpt, results attached:
COC1C[C@@H]2CC[C@@H](C)[C@@](O)(O2)C(=O)C(=O)N2CCCCC2C(=O)O[C@H]([C@H](C)C[C@@H]2CC[C@@H](n3ncnn3)[C@H](OC)C2)CC(=O)[C@H](C)/C=C(\C)[C@@H](O)[C@@H](OC)C(=O)[C@H](C)C[C@H](C)/C=C/C=C/C=C/1C (stereo partly shown) [Compound 307]	< 1000 nM
CO[C@@H]1C[C@H](C[C@@H](C)[C@@H]2CC(=O)[C@H](C)/C=C(\C)[C@@H](O)[C@@H](OC)C(=O)[C@H](C)C[C@H](C)/C=C/C=C/C=C(\C)C(c3cccn3C)C[C@@H]3CC[C@@H](C)[C@@](O)(O3)C(=O)C(=O)N3CCCCC3C(=O)O2)CC[C@H]1O (stereo partly shown) [Compound 212]	1000 to 10000 nM
COC1C[C@@H]2CC[C@@H](C)[C@@](O)(O2)C(=O)C(=O)N2CCCCC2C(=O)O[C@H]([C@H](C)C[C@@H]2CC[C@@H](OC(=O)NCCc3ccccc3)[C@H](OC)C2)CC(=O)[C@H](C)/C=C(\C)[C@@H](O)[C@@H](OC)C(=O)[C@H](C)C[C@H](C)/C=C/C=C/C=C/1C (stereo partly shown) [Compound 324]	< 1000 nM

State the recorded IC50 for this entry: CO[C@@H]1C[C@H](C[C@@H](C)[C@@H]2CC(=O)[C@H](C)/C=C(\C)[C@@H](O)[C@@H](OC)C(=O)[C@H](C)C[C@H](C)/C=C/C=C/C=C(\C)C(OC[C@H](O)c3ccccc3)C[C@@H]3CC[C@@H](C)[C@@](O)(O3)C(=O)C(=O)N3CCCCC3C(=O)O2)CC[C@H]1O (stereo partly shown) [Compound 214]
1000 to 10000 nM
